Test system: HL-60(TB) leukemia
Assay overview: NCI tumour cell line growth inhibition, 48 h
Attribute measured: GI50

[Q] Return reported GI50. Input molecule: C[C@H]1[C@H](C)CC[C@]2(C(=O)N3CCN(C)CC3)CC[C@]3(C)C(=CC[C@@H]4[C@@]5(C)C/C(=C/c6cccnc6)C(=O)C(C)(C)[C@@H]5CC[C@]43C)[C@H]12
[A] 487 nM

[Q] Return reported GI50. Input molecule: Cn1ccnc1C(=O)/C=C/c1ccc(CC(=O)Nc2ccc(S(F)(F)(F)(F)F)cc2)cc1
[A] 620 nM

[Q] Return reported GI50. Input molecule: Cn1c(=O)c(Oc2ccc(F)cc2F)cc2cnc(NC(CO)CO)nc21
[A] > 25000 nM

[Q] Return reported GI50. Input molecule: CCN1CCN(CC(=O)Nc2nc3ccc(NCc4ccc(Cl)cc4)cc3s2)CC1
[A] 1950 nM

* * *

Test system: OVCAR-3 ovarian
Assay overview: NCI tumour cell line growth inhibition, 48 h; in the data active means GI50 below about 0.43 µM; inactive means the rest
// allowed return values: active, inactive

[Q] Answer briefly: the call reported for COc1ccc2c(c1)c(-c1nc(-c3c[nH]c4ncccc34)cs1)cn2CCCCN1CCOCC1 in this assay.
[A] inactive

[Q] Answer briefly: the call reported for C[C@H]1[C@H](C)CC[C@]2(C(=O)N3CCN(C)CC3)CC[C@]3(C)C(=CC[C@@H]4[C@@]5(C)C/C(=C/c6cccnc6)C(=O)C(C)(C)[C@@H]5CC[C@]43C)[C@H]12 in this assay.
[A] inactive

[Q] Answer briefly: the call reported for Cc1ccc(/C=C2/SC(Nc3nc(-c4nc(NC5=NC(=O)/C(=C\c6ccc(C)cc6)S5)sc4C)c(C)s3)=NC2=O)cc1 in this assay.
[A] active

[Q] Answer briefly: the call reported for C=C(C)[C@@H]1CC[C@]2(C(=O)NCCNCCNCCN)CC[C@]3(C)[C@H](CC[C@@H]4[C@@]5(C)CC[C@H](O)C(C)(C)[C@@H]5CC[C@]43C)[C@@H]12 in this assay.
[A] inactive

[Q] Answer briefly: the call reported for N#Cc1c(N)nc(N2CCOCC2)c(C#N)c1-c1ccc(Cl)cc1 in this assay.
[A] inactive

[Q] Answer briefly: the call reported for CC(C)C[C@H](NC(=O)[C@H]1O[C@@H]1C(=O)O)C(=O)NCCc1ccc(O)cc1 in this assay.
[A] inactive

[Q] Answer briefly: the call reported for COc1ccn2c(C(C)=O)cc(C(=O)c3ccc4c(c3)Sc3ccccc3N4)c2c1 in this assay.
[A] active

* * *

Test system: OVCAR-8 ovarian
Assay overview: NCI tumour cell line growth inhibition, 48 h
Attribute measured: TGI

[Q] Return reported TGI. Input compound: COc1ccc(N(C)Sc2ccccc2)cc1
[A] > 100 µM

[Q] Return reported TGI. Input compound: COc1ccc(Cc2c(N)[nH]c(=O)n(C)c2=O)cc1
[A] > 100 µM

[Q] Return reported TGI. Input compound: Fc1cccc2cc3ccc4cccc5ccc(c12)c3c45
[A] > 100 µM

[Q] Return reported TGI. Input compound: CC1=C(C(=O)Nc2cccc(Cl)c2)C(c2ccc([N+](=O)[O-])cc2)C(C(=O)Nc2cccc(Cl)c2)=C(C)N1
[A] > 100 µM

[Q] Return reported TGI. Input compound: O=C(O)CCSCCCN1C(=O)c2ccccc2C1=O
[A] > 100 µM

[Q] Return reported TGI. Input compound: CCCCCCCCCCCCCCCCCCNc1ccn(C2OC(CO)C(O)C2O)c(=O)n1 (stereo unspecified)
[A] > 100 µM

[Q] Return reported TGI. Input compound: COc1cc2c3c(n(CCCNCC(OC)OC)c(=O)c2cc1OC)-c1cc2c(cc1C3=O)OCO2
[A] 38.4 µM

[Q] Return reported TGI. Input compound: O=c1c2cc(Br)ccc2nc(-c2ccccc2Cl)n1NCC1(O)OCC(O)C(O)C1O (stereo unspecified)
[A] > 100 µM

[Q] Return reported TGI. Input compound: COc1cc(-c2c(C#N)c(N)c(C#N)c3c2COc2ccccc2-3)cc(OC)c1OC
[A] 97.6 µM

[Q] Return reported TGI. Input compound: CC1CC(c2cccc3c2OCO3)=Nc2ccccc2S1 (stereo unspecified)
[A] > 100 µM

[Q] Return reported TGI. Input compound: C=CCOc1ccc(/C(N=Nc2ccccc2)=N/NC(=O)c2ccccc2)cc1OC
[A] > 100 µM
